ASSAY REMARKS: Ratio of Cmax in brain to plasma in Sprague-Dawley rat at 1 mg/kg, po
Type: ADME, organism-based
ENDPOINT NAME: Kp
Could you respond with only the numeric value?

### Prompt Give the value of Kp reported for the following: Nc1ccc(-c2ccc(F)cc2)cc1NC(=O)[C@@H]1C[C@H]2CC[C@@H](C1)O2
### Response 0.22

----------
ASSAYED TARGET: Histone deacetylase 2 (Homo sapiens)
CONDITION CONTEXT: Sf9
Description: Inhibition of full length human recombinant HDAC2 expressed in baculovirus coexpressed in fall armyworm Sf9 cells using carboxyfluorescein (FAM)-labeled acetylated/ trifluoroacetylated peptide as substrate assessed as residence time by fluorescence assay
ENDPOINT NAME: T1/2 (min)
Report as a plain number; the unit min is understood.

// solved cases for T1/2 follow
compound=Nc1ccc(-c2ccc(F)cc2)cc1NC(=O)[C@@H]1C[C@H]2CC[C@@H](C1)O2 endpoint_name=T1/2 recorded_result=37
compound=Nc1ccc(-c2cccc(F)c2)cc1NC(=O)C1CCOCC1 endpoint_name=T1/2 recorded_result=12.3

### Prompt Determine reported T1/2 for Nc1ccc(-c2ccc(F)cc2)cc1NC(=O)C1C2COCC21 (centres undefined) ; test system: Histone deacetylase 2 (Homo sapiens).
### Response 58

----------
ASSAY REMARKS: Half life in Sprague-Dawley rat plasma at 1 mg/kg, po
Assay type: ADME, organism-based
ENDPOINT NAME: half-life
Put down the number, then write its unit next to it.

### Prompt Give the value of half-life reported for the following: Nc1ccc(-c2ccc(F)cc2)cc1NC(=O)[C@@H]1C[C@H]2CC[C@@H](C1)O2
### Response 4.7 h

----------
ASSAY REMARKS: Oral bioavailability in Sprague-Dawley rat at 1 mg/kg
Format: ADME, organism-based
CONDITION CONTEXT: in vivo
ENDPOINT NAME: bioavailability (%)
Report as a plain number; the unit % is understood.

### Prompt Give the value of bioavailability reported for the following: Nc1ccc(-c2ccc(F)cc2)cc1NC(=O)[C@@H]1C[C@H]2CC[C@@H](C1)O2
### Response 33.4

----------
ASSAYED TARGET: Histone deacetylase 4 (Homo sapiens, UniProt P56524)
Sequence (P56524 whole entry, the tested form may be a part): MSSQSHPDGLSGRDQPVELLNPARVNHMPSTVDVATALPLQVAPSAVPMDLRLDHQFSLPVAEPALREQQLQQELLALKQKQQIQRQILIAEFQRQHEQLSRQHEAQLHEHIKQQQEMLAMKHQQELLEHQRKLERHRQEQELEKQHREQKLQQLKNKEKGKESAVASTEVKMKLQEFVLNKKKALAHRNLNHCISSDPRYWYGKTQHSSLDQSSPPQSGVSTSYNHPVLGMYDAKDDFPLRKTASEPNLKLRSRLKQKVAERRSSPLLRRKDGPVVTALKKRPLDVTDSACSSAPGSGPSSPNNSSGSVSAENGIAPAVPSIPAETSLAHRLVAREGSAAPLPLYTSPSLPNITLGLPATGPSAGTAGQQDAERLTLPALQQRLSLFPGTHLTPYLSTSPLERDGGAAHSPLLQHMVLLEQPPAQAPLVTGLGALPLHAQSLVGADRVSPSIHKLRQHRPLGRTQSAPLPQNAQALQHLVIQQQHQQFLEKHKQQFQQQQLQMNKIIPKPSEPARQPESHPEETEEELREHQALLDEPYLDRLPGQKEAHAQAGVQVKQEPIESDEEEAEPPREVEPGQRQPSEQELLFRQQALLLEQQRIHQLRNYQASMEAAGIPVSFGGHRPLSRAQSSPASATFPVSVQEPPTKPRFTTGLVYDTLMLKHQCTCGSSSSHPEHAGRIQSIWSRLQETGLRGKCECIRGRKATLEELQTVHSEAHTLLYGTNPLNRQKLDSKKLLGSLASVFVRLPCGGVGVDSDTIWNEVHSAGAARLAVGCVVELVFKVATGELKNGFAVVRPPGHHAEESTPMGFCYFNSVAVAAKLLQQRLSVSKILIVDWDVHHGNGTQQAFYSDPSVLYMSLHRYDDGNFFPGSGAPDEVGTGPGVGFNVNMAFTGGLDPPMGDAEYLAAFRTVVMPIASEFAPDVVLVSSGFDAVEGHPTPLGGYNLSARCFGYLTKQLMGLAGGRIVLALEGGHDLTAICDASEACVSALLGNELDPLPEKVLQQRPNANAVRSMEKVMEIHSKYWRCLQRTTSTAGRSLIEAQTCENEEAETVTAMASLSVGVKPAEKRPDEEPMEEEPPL
ASSAY REMARKS: Inhibition of N-terminal GST-tagged and C-terminal His-tagged human recombinant HDAC4 (627 to 1084 residues ) expressed in baculovirus coexpressed in fall armyworm Sf9 cells using carboxyfluorescein (FAM)-labeled acetylated/ trifluoroacetylated peptide as substrate after 60 mins by fluorescence assay
pIC50: −log10 of the molar value.
ENDPOINT NAME: pIC50

### Prompt Give the value of pIC50 reported for the following: Nc1ccc(-c2ccc(F)cc2)cc1NC(=O)[C@@H]1C[C@H]2CC[C@@H](C1)O2
### Response < 4.48

----------
ASSAYED TARGET: Histone deacetylase 2 (Homo sapiens, UniProt Q92769)
Sequence (Q92769 whole entry): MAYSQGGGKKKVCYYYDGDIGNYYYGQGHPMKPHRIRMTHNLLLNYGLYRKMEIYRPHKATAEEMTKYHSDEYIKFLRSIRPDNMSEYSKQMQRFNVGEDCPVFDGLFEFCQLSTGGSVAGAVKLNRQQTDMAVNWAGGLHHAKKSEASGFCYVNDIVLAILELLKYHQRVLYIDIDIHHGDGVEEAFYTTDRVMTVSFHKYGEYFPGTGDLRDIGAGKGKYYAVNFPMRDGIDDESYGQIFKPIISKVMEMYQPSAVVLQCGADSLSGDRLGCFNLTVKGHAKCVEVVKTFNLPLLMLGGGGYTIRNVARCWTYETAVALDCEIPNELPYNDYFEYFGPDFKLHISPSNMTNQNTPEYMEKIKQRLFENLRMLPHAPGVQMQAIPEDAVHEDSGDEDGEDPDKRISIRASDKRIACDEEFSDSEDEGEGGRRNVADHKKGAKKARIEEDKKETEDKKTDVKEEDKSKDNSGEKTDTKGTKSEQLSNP
ASSAY REMARKS: biochemical
Description: Inhibition full length human recombinant HDAC2 expressed in baculovirus coexpressed in fall armyworm Sf9 cells using carboxyfluorescein (FAM)-labeled acetylated/ trifluoroacetylated peptide as substrate after 60 mins by fluorescence assay
ENDPOINT NAME: log10 IC50 (log10 of the value in nM)
Please interpret these as log10 of IC50 where IC50 is in nM.

// solved cases for log10 IC50 follow
compound="Nc1ccc(-c2ccc(F)cc2)cc1NC(=O)C1CCCOC1 (stereo not given)" recorded_result=3.67
compound=Nc1ccc(-c2ccc(F)cc2)cc1NC(=O)[C@@H]1CCCCO1 recorded_result=3.16
compound="Nc1ccc(-c2ccc(F)cc2)cc1NC(=O)C1CCc2ccccc2O1 (stereo not given)" recorded_result=3.82
compound=Nc1ccc(-c2ccc(F)cc2)cc1NC(=O)[C@H]1CCCCO1 recorded_result=3.11

### Prompt Give the value of log10 IC50 reported for the following: Nc1ccc(-c2ccc(F)cc2)cc1NC(=O)C1Cc2ccccc2CO1 (stereo not given)
### Response 2.08
